- Test system: Human alphaherpesvirus 1
- assay.info: Antiviral activity against HSV1 by CPE assay
- Type: functional, organism-based
Each record here notes measured EC50.

The following compounds have reported results that may help.
1) Cc1cn([C@@H]2CS[C@H](CO)[C@H]2F)c(=O)[nH]c1=O: > 100 µg/mL
2) O=c1[nH]cnc2c1ncn2[C@H]1CC[C@@H](CO)O1: 0.17 µg/mL
3) Nc1ccn([C@@H]2CS[C@H](CO)[C@H]2F)c(=O)n1: > 100 µg/mL

Query: Quick check: EC50 of "O=c1ccn([C@@H]2CS[C@H](CO)[C@H]2F)c(=O)[nH]1" ?
Reply: > 100 µg/mL

Query: Entry "Nc1ncnc2c1ncn2[C@@H]1CS[C@H](CO)[C@H]1F" please
Reply: > 100 µg/mL

###

- Tested on: HeLa
- assay.info: Cytotoxicity against human HeLa cells
- Format: cell-based
endpoint.label: CC50

The following compounds have reported results that may help.
1) Nc1ccn([C@@H]2CS[C@H](CO)[C@H]2F)c(=O)n1: 14.54 µg/mL
2) NC(=O)c1ncn([C@@H]2O[C@H](CO)[C@@H](O)[C@H]2O)n1 [RIBAVIRIN]: > 300 µg/mL
3) Cc1cn([C@@H]2CS[C@H](CO)[C@H]2F)c(=O)[nH]c1=O: > 100 µg/mL
4) Nc1ncnc2c1ncn2[C@@H]1CS[C@H](CO)[C@H]1F: > 100 µg/mL

Next compound, CC50 to be filled in.
Query: Quick check: CC50 of "O=c1ccn([C@@H]2CS[C@H](CO)[C@H]2F)c(=O)[nH]1" ?
Reply: > 100 µg/mL

###

- Test system: Vero
- assay.info: Cytotoxicity against Vero cells
- Format: cell-based
- test.context: chlorocebus sabaeus
endpoint.label: CC50

The following compounds have reported results that may help.
1. Nc1ncnc2c1ncn2[C@@H]1CS[C@H](CO)[C@H]1F: > 100 µg/mL
2. O=c1[nH]cnc2c1ncn2[C@H]1CC[C@@H](CO)O1 [DIDANOSINE]: > 10 µg/mL
3. Cc1cn([C@@H]2CS[C@H](CO)[C@H]2F)c(=O)[nH]c1=O: > 100 µg/mL
4. O=c1ccn([C@@H]2CS[C@H](CO)[C@H]2F)c(=O)[nH]1: > 100 µg/mL

Next compound, CC50 to be filled in.
Query: Quick check: CC50 of "Nc1ccn([C@@H]2CS[C@H](CO)[C@H]2F)c(=O)n1" ?
Reply: > 100 µg/mL

###

- Tested on: Coxsackievirus B3
- assay.info: Antiviral activity against coxsackie B virus type 3 by CPE assay
- Type: functional, organism-based
- test.context: Enterovirus B
Each record here notes measured EC50.

The following compounds have reported results that may help.
1. NC(=O)c1ncn([C@@H]2O[C@H](CO)[C@@H](O)[C@H]2O)n1: 64.1 µg/mL
2. Nc1ncnc2c1ncn2[C@@H]1CS[C@H](CO)[C@H]1F: > 100 µg/mL
3. O=c1ccn([C@@H]2CS[C@H](CO)[C@H]2F)c(=O)[nH]1: > 100 µg/mL
4. Cc1cn([C@@H]2CS[C@H](CO)[C@H]2F)c(=O)[nH]c1=O: > 100 µg/mL

Query: Quick check: EC50 of "Nc1ccn([C@@H]2CS[C@H](CO)[C@H]2F)c(=O)n1" ?
Reply: > 14.5 µg/mL
